- experimental-target: Tau40 P301L protein (human)
- protocol-text: cell-based or functional assay
Square brackets hold non-standard residues; d marks the D form. Ends that are not written are not given here.
measurement-kind: IC50, Tau40 assay (ThT) (µM)
Field: numeric (µM). Do not append units.

| binder | unit-text | IC50, Tau40 assay (ThT) |
| --- | --- | --- |
| [dH][dK][dI][dR][dI][dH][dY][dH] [hkirihyh] | µM | 3.84 |
| [dF][dR][dI][dR][dL][dR][dW] [frirlrw] | µM | 3.23 |
| [dW][dR][dL][dT][dI][dH][dW] [wrltihw] | µM | 2.76 |
| [dY][dR][dV][dR][dI][dQ][dH][dI] [yrvriqhi] | µM | 5.13 |
| [dW][dK][dL][dV][dV][dW] [wklvvw] | µM | 2.81 |
| [dA][dW][dA][dK][dV][dR][dW] [awakvrw] | µM | 8.38 |
| [dY][dH][dV][dK][dF][dR][dH][dW] [yhvkfrhw] | µM | 4.71 |
| [dV][dK][dV][dW]G[dR][dL][dW] (not fully specified (residue 5); printed as vkvwgrlw) [vkvwgrlw] | µM | 6.72 |
| [dL][dK][dI][dF][dI][dH][dY][dH] [lkifihyh] | µM | 4.57 |
| [dW][dR][dL][dK][dV][dD][dW] [wrlkvdw] | µM | 2.7 |

Q: State the recorded IC50, Tau40 assay (ThT) for this entry: [dA][dR][dL][dK][dA][dR][dW] [arlkarw]
Result: 11.2

Q: Given the entry [dK][dW][dR][dW][dY][dR][dR] [kwrwyrr] , report its measured IC50, Tau40 assay (ThT).
Result: 3.55

Q: # IC50, Tau40 assay (ThT) lookup, item [dA][dR][dL][dK][dV][dR][dW] [arlkvrw]
Result: 3.23

Source listed as patent US20200216495A1.
